Measured values drawn from paper PMC9521028 for this set.

Experiment: Estimation of compound solubility in water (saturated solution, UV-vis)
Assay type: physicochemical
Details: aqueous buffer, thermodynamic from solid; 20 mM phosphate (pH 6.5) and 50 mM KCl buffer at 23 °C
READOUT: solubility at 48 h (µM)

Just so you know, measured solubility at 48 h for Cc1cc(C)nc(NC(=N)NCc2ccccc2)n1 came out at 10000

A: Cc1cc(C)nc(NC(=N)NCc2ccc(F)cc2)n1
B: CCCOc1ccc(NC(=N)Nc2nc(C)cc(O)n2)cc1
C: CCCOc1ccc(NC(=N)Nc2nc(C)cc(Cl)n2)cc1
Prompt line: List from greatest to least solubility at 48 h. Sort and list the labels as requested.
Response line: C, A, B

1: CCCOc1ccc(NC(=N)Nc2nc(C)cc(NCc3ccccc3)n2)cc1
2: Cc1ccc(CNC(=N)Nc2nc(C)cc(C)n2)cc1
3: Cc1cc(C)nc(NC(=N)NCc2ccccc2C)n1
4: Cc1cc(C)nc(NC(=N)Nc2ccccc2)n1
Prompt line: Please order the records by their reported solubility at 48 h, lowest number first. Sort and list the labels as requested.
Response line: 1, 3, 4, 2
(1: 200 µM, 3: 2000 µM, 4: 4000 µM, 2: 7000 µM)
